System: SNB-19
Assay: NCI tumour cell line growth inhibition, 48 h
Active and inactive are the calls of the source. No stated cut-off is given here; in the data, active = GI50 up to about 1.1 µM and inactive = higher. Where a SMILES comes first, the peptide text is derived from it. [ ]: non-standard residue; d: D form. Aoe = N[C@@H](CCCCCC(=O)[C@@H]1CO1)C(=O)O
Classes used: active, inactive

molecule: CN(C)CCC(C(=O)C(C)(C)C)c1ccccn1 (stereo unspecified)
study_target: SNB-19
label_class: inactive
//
molecule: Oc1ccc(/N=C/c2ccc(/C=N/c3ccc(O)cc3)cc2)cc1
study_target: SNB-19
label_class: inactive
//
molecule: C[n+]1c2ccccc2c(C(=O)Nc2ccc(S(=O)(=O)N=C(N)N)cc2)c2ccccc21
study_target: SNB-19
label_class: inactive
//
molecule: O=C1CSSCC(=O)Nc2ccccc2N1
study_target: SNB-19
label_class: inactive
//
molecule: CC1=C(c2cc(C(=O)Nc3ccc(Cl)c(Cl)c3)nc(N)n2)Sc2ccccc2N1
study_target: SNB-19
label_class: inactive
//
molecule: CC(NC(=O)C(C)C(=O)NCc1ccc(C(F)(F)F)cc1)C(N)=O (stereo unspecified)
study_target: SNB-19
label_class: inactive
//
molecule: O=C(O)c1c2c(c(C(=O)O)c3ccccc13)-c1ccccc1-2
study_target: SNB-19
label_class: inactive
//
molecule: N=C(N)NCCCC(NCc1c2ccccc2[n+]([O-])c2ccccc12)C(=O)O (stereo unspecified)
study_target: SNB-19
label_class: inactive
//
molecule: CC(C)c1cc2c(c(O)c1O)[C@@]1(C(=O)O)CCCC(C)(C)[C@@H]1CC2 [CARNOSIC ACID]
study_target: SNB-19
label_class: inactive
//
molecule: Cc1ccc(C)c(C(=N)c2ccccc2Cc2ccccc2)c1
study_target: SNB-19
label_class: inactive
//
molecule: CCOC(=O)Cn1c2ccc(Br)cc2c2nc3ccccc3nc21
study_target: SNB-19
label_class: inactive
//
molecule: O=c1[nH]c2ccccc2c(=O)n1/N=C\c1ccccc1O
study_target: SNB-19
label_class: inactive
//
molecule: O=C1N[C@@H](Cc2ccccc2)C(=O)N2CCC[C@@H]2C(=O)N[C@@H](CCCCCC(=O)[C@@H]2CO2)C(=O)N[C@H]1Cc1ccccc1 [TRAPOXIN B] (cyclo(FF[dP][Aoe]))
study_target: SNB-19
label_class: active
//
molecule: CCOC1=C2C(=O)OC(=O)C2C2CCCCC2=C1 (stereo unspecified)
study_target: SNB-19
label_class: inactive
//
molecule: ClCCCCCc1c2nc(c(CCCCCCl)c3ccc([nH]3)c(CCCCCCl)c3nc(c(CCCCCCl)c4ccc1[nH]4)C=C3)C=C2
study_target: SNB-19
label_class: inactive
//
molecule: OCCOc1ccccc2cccc1-2
study_target: SNB-19
label_class: inactive
//
molecule: Cc1ccc(C2=Nc3c(N)nc(N)nc3NC(c3ccccc3)C2)cc1 (stereo unspecified)
study_target: SNB-19
label_class: inactive
//
molecule: O=C1/C(=C\c2cccc(Oc3ccccc3)c2)S(=O)(=O)C(c2ccccc2)N1c1ccc(Cl)cc1 (stereo unspecified)
study_target: SNB-19
label_class: inactive
//
molecule: COc1ccc2c3c([nH]c2c1[N+](=O)[O-])C(C)N(C)CC3 (stereo unspecified)
study_target: SNB-19
label_class: inactive
//
molecule: O=C(O)c1c(-c2cccc3ccccc23)sc(-c2cccc3ccccc23)c1C(=O)O
study_target: SNB-19
label_class: inactive
//
molecule: O=C1OC(c2ccccc2)=NC1c1ccccc1 (stereo unspecified)
study_target: SNB-19
label_class: inactive
